Just for reference, ChEMBL document CHEMBL1671716 is where these values come from.

System: Bifidobacterium adolescentis
Assay: Antimicrobial activity against Bifidobacterium adolescentis assessed as percent susceptible isolates after 48 hrs by agar dilution method
Type: functional
Metric Name: Activity
Include the unit after the number when you answer.

Past entries and their recorded results:
Molecule	Assay Value
Cc1ncc([N+](=O)[O-])n1CCO	46%
COc1c(N2C[C@@H]3CCCN[C@@H]3C2)c(F)cc2c(=O)c(C(=O)O)cn(C3CC3)c12	92%
C[C@@H](O)[C@H]1C(=O)N2C(C(=O)O)=C(S[C@@H]3CN[C@H](C(=O)N(C)C)C3)[C@H](C)[C@H]12	92%
O=C(N[C@H](CO)[C@H](O)c1ccc([N+](=O)[O-])cc1)C(Cl)Cl	92%
CO[C@@]1(NC(=O)C2SC(=C(C(N)=O)C(=O)O)S2)C(=O)N2C(C(=O)O)=C(CSc3nnnn3C)CS[C@@H]21 (some centres undefined)	85%

Hi! Can you tell me Activity for each of these molecules?
1. C[C@@H](O)[C@H]1C(=O)N2C(C(=O)O)=C(SCCNC=N)C[C@H]12 [IMIPENEM ANHYDROUS]
2. CCC[C@@H]1C[C@@H](C(=O)N[C@@H]([C@H]2O[C@H](SC)[C@H](O)[C@@H](O)[C@H]2O)[C@H](C)Cl)N(C)C1
3. CCN1CCN(C(=O)N[C@@H](C(=O)N[C@@H]2C(=O)N3[C@@H]2SC(C)(C)[C@@H]3C(=O)O)c2ccccc2)C(=O)C1=O
4. CO[C@@]1(NC(=O)Cc2cccs2)C(=O)N2C(C(=O)O)=C(COC(N)=O)CS[C@@H]21

1. 100%
2. 85%
3. 92%
4. 92%
